B1: YPEL3 (parent)
chain: SKPKTFQAYLDDCHRRYSCAHCRA

- Variants of: B1
- assay-details: protein stability index of a GFP-peptide fusion (GPS, HEK-293T) (PSI 1-6); higher = more stable;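 also: lentivirally expressed fusions sorted by FACS into six bins by GFP to DsRed ratio, PSI derived from sequencing read proportions per bin multiplied by bin number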
- measurement-setup: c terminus: a fixed tail appended
Parameter threshold = 2. Response is Y when protein stability index meets or exceeds it, else N.

As a guide, the following entries are already answered.
variant-name	qualitative-label
C22R	Y
S1I	Y

Quick check: does "S1D" have protein stability index greater than or equal to 2?
Y

Quick check: does "Q7T" have protein stability index greater than or equal to 2?
N

Quick check: does "A20Q" have protein stability index greater than or equal to 2?
N

Quick check: does "K4E" have protein stability index greater than or equal to 2?
Y
